target: NK1 (Homo sapiens, UniProt P25103); assay: Signal transduction (ST), intracellular Ca++ (FLIPR), NK1 antagonistic activity; format: cell-based; conditions: read-out: pIC50 NK1 (converted)
Sequence (P25103 whole entry): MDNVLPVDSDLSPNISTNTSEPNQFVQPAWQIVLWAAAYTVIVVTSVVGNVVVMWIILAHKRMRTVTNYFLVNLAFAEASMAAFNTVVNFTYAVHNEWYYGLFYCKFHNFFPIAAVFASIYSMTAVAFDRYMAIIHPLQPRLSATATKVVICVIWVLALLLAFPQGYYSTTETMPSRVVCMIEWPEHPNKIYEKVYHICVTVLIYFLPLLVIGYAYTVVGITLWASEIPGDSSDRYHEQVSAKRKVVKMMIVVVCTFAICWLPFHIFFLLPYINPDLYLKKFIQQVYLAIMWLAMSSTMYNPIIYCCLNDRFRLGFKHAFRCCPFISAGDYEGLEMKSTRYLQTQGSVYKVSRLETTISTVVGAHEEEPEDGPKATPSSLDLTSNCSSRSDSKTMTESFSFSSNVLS
measured metric: IC50 (µM)

compound: CC(C)(C)OC(=O)N1CCCC(C(=O)N2CCC(N3CCN([C@H]4CCN(C(=O)c5cc(C(F)(F)F)cc(C(F)(F)F)c5)[C@H](Cc5ccccc5)C4)CC3)C2)C1 (stereo partly drawn)
unit descriptor: µM
IC50: 0.0316

P = O=C(c1cc(C(F)(F)F)cc(C(F)(F)F)c1)N1CCC(N2CCN(C3CCN(c4ncccn4)C3)CC2)CC1Cc1ccccc1 (stereo not drawn)
Q = Cc1nccn1C(C(=O)N1CCC(N2CCN(C3CCN(C(=O)c4cc(C(F)(F)F)cc(C(F)(F)F)c4)C(Cc4ccccc4)C3)CC2)C1)c1ccccc1 (stereo not drawn)
// select label with min value of measured IC50 from [ P , Q ] The response must carry the label of the picked entry.
Q
(Q: 0.02 µM, P: 0.0316 µM)
